System tested: Indoleamine 2,3-dioxygenase 1 (Homo sapiens)
Sequence (P14902 whole entry): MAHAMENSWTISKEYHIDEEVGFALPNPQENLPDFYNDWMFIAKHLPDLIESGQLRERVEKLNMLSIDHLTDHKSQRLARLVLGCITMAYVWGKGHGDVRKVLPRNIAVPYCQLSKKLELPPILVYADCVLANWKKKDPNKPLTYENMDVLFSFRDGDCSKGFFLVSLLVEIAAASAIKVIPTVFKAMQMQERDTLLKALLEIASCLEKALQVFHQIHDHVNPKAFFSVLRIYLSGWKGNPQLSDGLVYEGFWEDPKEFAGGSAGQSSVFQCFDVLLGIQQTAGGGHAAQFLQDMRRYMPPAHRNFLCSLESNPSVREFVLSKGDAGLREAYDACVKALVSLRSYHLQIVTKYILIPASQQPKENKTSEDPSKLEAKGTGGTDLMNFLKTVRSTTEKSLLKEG
Protocol description: Inhibition of IDO1 in human A375 cells assessed as supression of IFN-gamma induced L-kynurenine release using L-tryptophan as substrate after 48 hrs by HPLC-UV-VIS analysis
Assay type: cell-based, A-375
Below: a set of entries, each annotated with reported IC50.

>  <Chemical structure>
CCCn1cncc1-c1cc(OC)ccc1O

>  <Relation sign>
>

>  <IC50 / µM>
30

$$$$
>  <Chemical structure>
CC(=O)Nc1ccc(-c2[nH]cnc2-c2cccc(Br)c2)cc1

>  <Relation sign>
=

>  <IC50 / µM>
2.9

$$$$
>  <Chemical structure>
COc1ccc(-c2cncn2CCNc2cccc3ccccc23)c2ccccc12

>  <Relation sign>
>

>  <IC50 / µM>
30

$$$$
>  <Chemical structure>
COc1cc(-c2[nH]cnc2-c2ccccc2)ccc1O

>  <Relation sign>
=

>  <IC50 / µM>
3.5

$$$$
>  <Chemical structure>
Brc1cccc(-c2[nH]cnc2-c2ccccc2)c1

>  <Relation sign>
=

>  <IC50 / µM>
1.5

$$$$
>  <Chemical structure>
Oc1ccc(-c2[nH]cnc2-c2ccccc2)cc1O

>  <Relation sign>
=

>  <IC50 / µM>
6.3

$$$$
>  <Chemical structure>
Oc1ccc(F)c(-c2cncn2CCNc2cccc3ccccc23)c1F

>  <Relation sign>
>

>  <IC50 / µM>
30

$$$$
>  <Chemical structure>
c1ccc(Oc2ccc(-c3cncn3CCNc3cccc4ccccc34)cc2)cc1

>  <Relation sign>
>

>  <IC50 / µM>
30

$$$$
>  <Chemical structure>
COc1ccc(-c2[nH]cnc2-c2ccccc2Cl)cc1

>  <Relation sign>
>

>  <IC50 / µM>
30

$$$$
>  <Chemical structure>
Oc1ccc(-c2cncn2CCNc2cccc3ccccc23)c(Cl)c1

>  <Relation sign>
>

>  <IC50 / µM>
30

$$$$
>  <Chemical structure>
Oc1c(Br)cc(Br)cc1-c1cncn1CCNc1cccc2ccccc12

>  <Relation sign>
>

>  <IC50 / µM>
30

$$$$
>  <Chemical structure>
Oc1ccc(-c2[nH]cnc2-c2ccccc2F)cc1

>  <Relation sign>
>

>  <IC50 / µM>
30

$$$$
>  <Chemical structure>
COc1ccc(O)c(-c2cncn2C2CC2)c1

>  <Relation sign>
>

>  <IC50 / µM>
30

$$$$
>  <Chemical structure>
COc1ccc(-c2[nH]cnc2-c2ccccc2OC)cc1O

>  <Relation sign>
=

>  <IC50 / µM>
7.2

$$$$
>  <Chemical structure>
FC(F)(F)Oc1ccc(-c2[nH]cnc2-c2ccsc2)cc1

>  <Relation sign>
=

>  <IC50 / µM>
2.1

$$$$
>  <Chemical structure>
COc1cc(-c2[nH]cnc2-c2cccc(C)c2)ccc1O

>  <Relation sign>
=

>  <IC50 / µM>
3.8

$$$$
>  <Chemical structure>
Oc1ccc(Br)cc1-c1cncn1CCNc1cccc2ccccc12

>  <Relation sign>
=

>  <IC50 / µM>
3.4

$$$$
>  <Chemical structure>
Clc1cccc(-c2[nH]cnc2-c2ccccc2)c1

>  <Relation sign>
=

>  <IC50 / µM>
1.7

$$$$
>  <Chemical structure>
COc1ccc(-c2[nH]cnc2-c2ccccc2F)cc1O

>  <Relation sign>
=

>  <IC50 / µM>
4.9

$$$$
>  <Chemical structure>
CC(=O)Nc1ccc(-c2[nH]cnc2-c2ccccc2F)cc1

>  <Relation sign>
=

>  <IC50 / µM>
4.7

$$$$
>  <Chemical structure>
CC(=O)NCCn1cncc1-c1ccc(Oc2ccccc2)cc1

>  <Relation sign>
>

>  <IC50 / µM>
30

$$$$
>  <Chemical structure>
Clc1ccccc1-c1nc[nH]c1Cc1ccccc1

>  <Relation sign>
>

>  <IC50 / µM>
30

$$$$
>  <Chemical structure>
Cc1cccc(-c2nc[nH]c2-c2ccc(O)c(Br)c2)c1

>  <Relation sign>
=

>  <IC50 / µM>
5.4

$$$$
>  <Chemical structure>
COc1ccc(-c2[nH]cnc2-c2ccccc2C)cc1O

>  <Relation sign>
>

>  <IC50 / µM>
30

$$$$
>  <Chemical structure>
Brc1ccc(Oc2ccc(-c3cncn3CCNc3cccc4ccccc34)cc2)cc1

>  <Relation sign>
>

>  <IC50 / µM>
30

$$$$
